Tested on: Hepatitis B virus
Procedure Text: Inhibition of HBV recombinant Cp149 expressed in Escherichia coli BL21 (DE3) assessed as inhibition of capsid assembly at 0.1 uM incubated for 1 hr by immune blotting analysis relative to control
Value Kind: inhibition

Guide cases for inhibition, answers given:
CS(=O)(=O)c1nc(Nc2ccc(F)c(Br)c2)cc(N2CCNCC2)n1; 13%
CS(=O)(=O)c1nc(Nc2ccc(F)c(Br)c2)cc(NC2CCC(N)CC2)n1 (stereo unspecified); 10%
CS(=O)(=O)c1nc(Nc2ccc(F)c(Br)c2)cc(NC2CCNCC2)n1; 7%
COc1ncccc1C(=O)NCCNc1cc(Nc2ccccc2)nc([S+](C)[O-])n1 (stereo unspecified); 14%
COc1ncccc1C(=O)NCCNc1cc(Nc2ccc(Br)cc2)nc([S+](C)[O-])n1 (stereo unspecified); 27%
CCOC(=O)C1=C(CN2CCOCC2)NC(c2nccs2)=N[C@H]1c1ccc(F)cc1Br; 49%
CS(=O)(=O)c1nc(Nc2cc(F)c(F)c(F)c2)cc(NC2CCNCC2)n1; 16%
COc1ncccc1C(=O)NCCNc1cc(Nc2ccc(F)cc2)nc([S+](C)[O-])n1 (stereo unspecified); 32%

For each entry beneath this line, provide reported inhibition.
1. CS(=O)(=O)c1nc(Nc2ccc(F)c(Cl)c2)cc(NC2CCC(N)CC2)n1 (stereo unspecified)
2. CS(=O)(=O)c1nc(Nc2cc(F)c(F)c(F)c2)cc(NC2CCC(N)CC2)n1 (stereo unspecified)
3. CS(=O)(=O)c1nc(Nc2ccc(F)c(Cl)c2)cc(NC2CCNCC2)n1

52%
29%
59%

Just for reference, ChEMBL document CHEMBL4825668 is where these values come from.
